# Measurement description: protein stability index of a GFP-peptide fusion (GPS, HEK-293T) (PSI 1-6); higher = more stable;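 further: 24-mer peptide tiles fused after GFP, lentivirally expressed, FACS-sorted into six equal bins by GFP/DsRed ratio, decoded by Illumina sequencing, PSI is the read-weighted mean bin number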
# Measurement conditions: treatment: DMSO; c terminus: a fixed tail appended
# reported protein stability index; entries follow
Give the figure by itself; no unit, no explanation.

Before answering, review these 3 worked examples.
QHAALGGTATRQNNWPPLPSFCPV [SCAMP3]	3.33
LPRHQDQPHHQPPNRAGAPGESLE [TRAF3IP2]	5.51
APKDSAPQDLAPQVSAHHRSQESL [TBC1D10A]	5.36

Data request: Return reported protein stability index; argument: AGGATAWGDLLGEDSLAALSSVPS [SNAP91]
Data returned: 3.99

Data request: Return reported protein stability index; argument: SSRYDDYSSSRDGYGGSRDSYSSS [RBMX]
Data returned: 4.37

Data request: Return reported protein stability index; argument: CCLVKMESLEPDAQVLMLGQILEL [FANCE]
Data returned: 3.04

Data request: Return reported protein stability index; argument: PAAPFDKKCGRENWTVAFAPDGSY [WSB1]
Data returned: 2.63

Data request: Return reported protein stability index; argument: TTKFTGSHKERFDPSGKGKGKAGR [TPPP]
Data returned: 4.83

# credit: the supplement of paper PMC10567573
